Where these numbers come from: patent US6525022B1

- measuredOn: T1, human natriuretic peptide receptor-A (human), P16066
- T1 chain: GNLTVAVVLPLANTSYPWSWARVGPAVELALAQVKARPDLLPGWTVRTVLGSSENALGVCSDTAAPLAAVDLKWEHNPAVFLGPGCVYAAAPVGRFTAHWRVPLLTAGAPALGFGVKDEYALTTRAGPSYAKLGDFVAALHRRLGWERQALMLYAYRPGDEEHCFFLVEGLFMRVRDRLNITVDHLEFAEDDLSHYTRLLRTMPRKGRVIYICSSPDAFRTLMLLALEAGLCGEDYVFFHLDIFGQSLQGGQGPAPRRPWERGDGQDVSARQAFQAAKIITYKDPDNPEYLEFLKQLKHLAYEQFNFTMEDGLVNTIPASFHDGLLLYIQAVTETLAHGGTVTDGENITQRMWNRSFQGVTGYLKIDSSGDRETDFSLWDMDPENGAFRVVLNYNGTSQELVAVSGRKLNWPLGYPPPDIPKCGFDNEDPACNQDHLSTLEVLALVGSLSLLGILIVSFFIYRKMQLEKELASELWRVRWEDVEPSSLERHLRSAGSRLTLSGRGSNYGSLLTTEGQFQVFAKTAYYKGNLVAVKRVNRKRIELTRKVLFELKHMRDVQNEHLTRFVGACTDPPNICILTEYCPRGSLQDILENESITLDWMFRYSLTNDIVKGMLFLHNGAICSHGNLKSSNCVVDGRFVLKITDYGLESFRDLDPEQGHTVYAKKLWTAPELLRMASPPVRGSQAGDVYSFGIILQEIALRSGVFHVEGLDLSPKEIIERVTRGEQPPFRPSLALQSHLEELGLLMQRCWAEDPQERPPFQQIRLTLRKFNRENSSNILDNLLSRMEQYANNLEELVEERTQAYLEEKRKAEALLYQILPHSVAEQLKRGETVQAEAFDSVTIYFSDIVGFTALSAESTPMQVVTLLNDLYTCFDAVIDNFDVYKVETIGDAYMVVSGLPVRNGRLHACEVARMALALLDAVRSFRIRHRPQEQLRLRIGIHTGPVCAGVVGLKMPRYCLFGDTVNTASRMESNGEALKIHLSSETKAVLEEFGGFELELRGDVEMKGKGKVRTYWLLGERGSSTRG
- experiment: competition binding vs 125I-rat ANP, membranes
- runConditions: chains peptide; modification not given
readout: IC50 (nM)

{"binder": "SLRRSSCFGGRIDRIGAQSGLGCNSFRY [rat ANP]", "readout": "IC50", "recordedNumber": 0.181}
{"binder": "SLRRSSCFGGRIDRIREASGLGCNSFRY [ANF 99]", "readout": "IC50", "recordedNumber": 0.145}
